# measured_on: Gamma-secretase (Homo sapiens) (UniProt Q96BI3+Q9NZ42+Q8WW43+P49768+Q92542+P49810)
# measurement_notes: Inhibition of gamma-secretase (unknown origin) expressed in N2a NL/N cells coexpressing betaAPPNL and NotchdeltaE assessed as Abeta42 secretion at 100 nM by ELISA
# Assay type: cell-based
Calls of active or inactive are those of the source. No cut-off for these calls is given here.
// allowed return values: true (1) for active, false (0) for inactive

Query: Entry CC(=O)N[C@H]1CCC[C@@H]1C(=O)N[C@H]1CCC[C@@H]1C(=O)N[C@H]1CCC[C@@H]1C(=O)N[C@H]1CCC[C@@H]1C(=O)N[C@H]1CCC[C@@H]1C(=O)N[C@@H](CCCCN)CC(=O)N[C@H]1CCC[C@@H]1C(=O)N[C@H]1CCC[C@@H]1C(=O)N[C@H]1CCC[C@@H]1C(=O)N[C@H]1CCC[C@@H]1C(=O)N[C@H]1CCC[C@@H]1C(=O)N[C@H]1CCC[C@@H]1C(N)=O : call = ?
Reply: false (0)

Query: Entry CC(=O)N[C@H]1CCC[C@@H]1C(=O)N[C@H]1CCC[C@@H]1C(=O)NCCC(=O)N[C@H]1CCC[C@@H]1C(=O)N[C@H]1CCC[C@@H]1C(=O)N[C@H]1CCC[C@@H]1C(=O)N[C@H]1CCC[C@@H]1C(=O)N[C@H]1CCC[C@@H]1C(=O)N[C@H]1CCC[C@@H]1C(=O)N[C@H]1CCC[C@@H]1C(=O)N[C@H]1CCC[C@@H]1C(=O)N[C@H]1CCC[C@@H]1C(N)=O : call = ?
Reply: true (1)

Query: Entry CC(=O)N[C@H]1CCC[C@@H]1C(=O)N[C@H]1CCC[C@@H]1C(=O)N[C@H]1CCC[C@@H]1C(=O)N[C@H]1CCC[C@@H]1C(=O)N[C@H]1CCC[C@@H]1C(=O)N[C@H](CC(=O)N[C@H]1CCC[C@@H]1C(=O)N[C@H]1CCC[C@@H]1C(=O)N[C@H]1CCC[C@@H]1C(=O)N[C@H]1CCC[C@@H]1C(=O)N[C@H]1CCC[C@@H]1C(=O)N[C@H]1CCC[C@@H]1C(N)=O)Cc1ccc(O)cc1 : call = ?
Reply: false (0)
